- System: Escherichia coli TOP10;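 further: peptides expressed intracellularly from a pBAD plasmid library in pooled LB shake-flask culture, induced with 0.3% L-arabinose, DNA abundance read by NGS, three biological replicates, DESeq2 with apeglm shrinkage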
- method: shrunken log2 fold change of peptide-encoding DNA abundance (4.5 h post-induction vs induction); higher = less antimicrobial activity (less host growth inhibition)
- measurementContext: time post-induction: 4.5 h; library: site-saturation at positions 5, 18, 19, 20
Each entry below carries its recorded shrunken log2 fold change.
Form rule: numeric answer, no unit written next to it.

Some solved entries appear below for comparison.
RRIRYRPPRLPRPRPRPHFVPRP; -0.182
RRIRPRPPRLPRPRPRPPTYPRP; -0.204
RRIRPRPPRLPRPRPRPKSNPRP; -0.37

Would you kindly share the measured shrunken log2 fold change for "RRIRGRPPRLPRPRPRPGQVPRP" ?
0.11

Would you kindly share the measured shrunken log2 fold change for "RRIRWRPPRLPRPRPRPVGHPRP" ?
0.243

Would you kindly share the measured shrunken log2 fold change for "RRIRKRPPRLPRPRPRPFNRPRP" ?
-0.203
